Parameter Emax: see the listing below.
Biological target: hPR-B (progesterone receptor isoform B) (Homo sapiens, UniProt P06401)
Construct: expressed in transfected cells; host or cells: SK-N-MC (human neuroblastoma) cells, stably transfected with pRSVhPR-neo (built from pRC/RSV and hPR-1) and pMTV-LUC
Sequence (P06401 1-933): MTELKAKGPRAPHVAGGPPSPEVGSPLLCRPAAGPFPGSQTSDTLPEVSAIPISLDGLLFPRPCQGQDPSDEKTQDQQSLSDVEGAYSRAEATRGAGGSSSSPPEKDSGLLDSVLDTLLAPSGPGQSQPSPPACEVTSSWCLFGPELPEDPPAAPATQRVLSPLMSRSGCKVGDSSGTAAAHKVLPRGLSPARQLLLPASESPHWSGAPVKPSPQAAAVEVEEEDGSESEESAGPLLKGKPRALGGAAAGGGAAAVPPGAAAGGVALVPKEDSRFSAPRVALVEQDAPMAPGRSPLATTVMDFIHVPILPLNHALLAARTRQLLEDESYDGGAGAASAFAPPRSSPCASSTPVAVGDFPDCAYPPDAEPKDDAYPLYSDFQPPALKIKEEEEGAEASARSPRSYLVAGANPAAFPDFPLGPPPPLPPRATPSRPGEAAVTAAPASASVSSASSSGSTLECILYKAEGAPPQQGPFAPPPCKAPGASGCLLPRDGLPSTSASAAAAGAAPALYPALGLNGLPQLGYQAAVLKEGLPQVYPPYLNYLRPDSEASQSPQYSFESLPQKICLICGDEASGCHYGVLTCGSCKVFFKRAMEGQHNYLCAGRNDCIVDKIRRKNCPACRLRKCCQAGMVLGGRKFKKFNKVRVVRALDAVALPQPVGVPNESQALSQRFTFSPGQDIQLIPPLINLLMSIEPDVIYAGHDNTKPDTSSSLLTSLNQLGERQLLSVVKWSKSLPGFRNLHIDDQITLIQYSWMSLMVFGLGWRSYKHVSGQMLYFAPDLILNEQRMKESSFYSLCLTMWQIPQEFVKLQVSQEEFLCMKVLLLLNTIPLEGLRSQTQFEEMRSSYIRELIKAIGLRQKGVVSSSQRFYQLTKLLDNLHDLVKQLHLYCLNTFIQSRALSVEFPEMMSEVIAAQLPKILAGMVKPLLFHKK
Test: Transactivation assay, SK-N-MC cells stably transfected with hPR-B and MTV-LUC reporter
Format: cell-based
Settings: SK-N-MC hPR-B/MTV-LUC cells; LUC activity relative to R5020 10^-7 mol/l = 100%, 1% ethanol = 0%; 24 h incubation; read-out: Agonism efficacy (PR-B)
metric name: Emax (%)

[[record]]
compound = "CC(=O)O[C@]1(C(C)=O)CCC2C3C[C@H](C)C4=CC(=O)CC[C@@]45CC=C[C@@H](C[C@@]21C)C35 (stereo partly drawn)"
tested_on = "hPR-B (progesterone receptor isoform B) (Homo sapiens, UniProt P06401)"
assay_value = 90

[[record]]
compound = "CC(=O)O[C@]1(C(C)=O)CCC2C3C=C(Cl)C4=CC(=O)CC[C@@]45CC[C@@H](C[C@@]21C)C35 (stereo partly drawn)"
tested_on = "hPR-B (progesterone receptor isoform B) (Homo sapiens, UniProt P06401)"
assay_value = 50

[[record]]
compound = "C#C[C@]1(O)C=CC2C3CCC4=CC(=O)CC[C@@]45CCC=C(C[C@@]21CC)C35 (stereo partly drawn)"
tested_on = "hPR-B (progesterone receptor isoform B) (Homo sapiens, UniProt P06401)"
assay_value = 108

[[record]]
compound = "O=C1OCc2cc(NC(=O)C(O)(CC3(c4cccc(Br)c4)CC3)C(F)(F)F)ccc21 (stereo not drawn)"
tested_on = "hPR-B (progesterone receptor isoform B) (Homo sapiens, UniProt P06401)"
assay_value = 106

[[record]]
compound = "C=C[C@]1(O)CCC2C3CCC4=CC(=O)CC[C@@]45CC=C[C@@H](C[C@@]21CC)C35 (stereo partly drawn)"
tested_on = "hPR-B (progesterone receptor isoform B) (Homo sapiens, UniProt P06401)"
assay_value = 108

[[record]]
compound = "C#C[C@]1(O)CCC2C3CCC4=CC(=O)CC[C@@]45CC=C[C@@H](C[C@@]21CC)C35 (stereo partly drawn)"
tested_on = "hPR-B (progesterone receptor isoform B) (Homo sapiens, UniProt P06401)"
assay_value = 108

[[record]]
compound = "CC(CC(O)(CNc1ccc2c(c1)COC2=O)C(F)(F)F)c1ccccc1 (stereo not drawn)"
tested_on = "hPR-B (progesterone receptor isoform B) (Homo sapiens, UniProt P06401)"
assay_value = 56.8

[[record]]
compound = "C#C[C@]1(O)C=CC2C3CCC4=CC(=O)CC[C@@]45CC=C[C@@H](C[C@@]21C)C35 (stereo partly drawn)"
tested_on = "hPR-B (progesterone receptor isoform B) (Homo sapiens, UniProt P06401)"
assay_value = 114

[[record]]
compound = "CC(=O)O[C@]1(C(C)=O)CC[C@H]2[C@@H]3C=C(C)C4=CC(=O)CC[C@]4(C)[C@H]3CC[C@@]21C"
tested_on = "hPR-B (progesterone receptor isoform B) (Homo sapiens, UniProt P06401)"
assay_value = 81

